- protocolSummary: Cytotoxicity against human A2780 cells after 72 hrs by MTT assay
- Assay type: cell-based
property: GI50 at 72 h (µM)

{"compound": "CN(C)CCOc1ccc(N2C(=O)[C@@H]3[C@H](C2=O)[C@H]2CC[C@@H]3O2)cc1", "property": "GI50 at 72 h", "unitSpec": "µM", "rel": ">", "reportedResult": 75}
{"compound": "O=C(O)C1C(C(=O)Nc2ccccc2)[C@H]2CC[C@@H]1O2 (some centres undefined)", "property": "GI50 at 72 h", "unitSpec": "µM", "rel": "=", "reportedResult": 10}
{"compound": "O=C(O)C1C(C(=O)Nc2ccc(Br)cc2)[C@H]2CC[C@@H]1O2 (some centres undefined)", "property": "GI50 at 72 h", "unitSpec": "µM", "rel": "=", "reportedResult": 10}
{"compound": "O=C(O)c1ccc(NC(=O)C2C(C(=O)O)[C@@H]3CC[C@H]2O3)cc1Cl (some centres undefined)", "property": "GI50 at 72 h", "unitSpec": "µM", "rel": "=", "reportedResult": 10}
{"compound": "O=C(O)C1C(C(=O)NCc2ccc(Cl)cc2)[C@H]2CC[C@@H]1O2 (some centres undefined)", "property": "GI50 at 72 h", "unitSpec": "µM", "rel": "=", "reportedResult": 10}
{"compound": "CN(C)CCOc1ccccc1N1C(=O)[C@@H]2[C@H](C1=O)[C@H]1CC[C@@H]2O1", "property": "GI50 at 72 h", "unitSpec": "µM", "rel": ">", "reportedResult": 75}
{"compound": "O=C1[C@@H]2[C@H](C(=O)N1c1ncccc1OCc1ccccc1)[C@H]1CC[C@@H]2O1", "property": "GI50 at 72 h", "unitSpec": "µM", "rel": ">", "reportedResult": 75}
{"compound": "O=C(O)C1C(C(=O)NCCCc2ccccc2)[C@H]2CC[C@@H]1O2 (some centres undefined)", "property": "GI50 at 72 h", "unitSpec": "µM", "rel": "=", "reportedResult": 10}
{"compound": "O=C(O)C1C(C(=O)NCCc2ccccc2)[C@H]2CC[C@@H]1O2 (some centres undefined)", "property": "GI50 at 72 h", "unitSpec": "µM", "rel": "=", "reportedResult": 10}

---

- protocolSummary: Cytotoxicity against human SJ-G2 cells after 72 hrs by MTT assay
- Type: cell-based

{"compound": "CN(C)CCOc1ccccc1N1C(=O)[C@@H]2[C@H](C1=O)[C@H]1CC[C@@H]2O1", "GI50 at 72 h": "> 75 µM"}
{"compound": "CCCCCCCCNC(=O)C1C(C(=O)O)[C@@H]2CC[C@H]1O2 (stereo partly drawn)", "GI50 at 72 h": "10 µM"}
{"compound": "CCCCCCCCCCNC(=O)C1C(C(=O)O)[C@@H]2CC[C@H]1O2 (stereo partly drawn)", "GI50 at 72 h": "10 µM"}

---

- protocolSummary: Cytotoxicity against human DU145 cells after 72 hrs by MTT assay
- Assay type: cell-based, DU-145

{"compound": "O=C1[C@@H]2[C@H](C(=O)N1CCOP(=O)(OCC(Cl)(Cl)Cl)OCC(Cl)(Cl)Cl)[C@H]1CC[C@@H]2O1", "GI50 at 72 h": "> 75 µM"}
{"compound": "CN(C)CCOc1ccccc1N1C(=O)[C@@H]2[C@H](C1=O)[C@H]1CC[C@@H]2O1", "GI50 at 72 h": "> 75 µM"}
{"compound": "O=C(O)C1C(C(=O)NCCCc2ccccc2)[C@H]2CC[C@@H]1O2 (stereo not given in full)", "GI50 at 72 h": "10 µM"}
{"compound": "O=C1[C@@H]2[C@H](C(=O)N1c1ncccc1OCc1ccccc1)[C@H]1CC[C@@H]2O1", "GI50 at 72 h": "> 75 µM"}
{"compound": "O=C(O)[C@H](Cc1ccc(O)cc1)N1C(=O)[C@@H]2[C@H](C1=O)[C@H]1CC[C@@H]2O1", "GI50 at 72 h": "> 75 µM"}

Data origin, for the record: ChEMBL document CHEMBL1777719
